- experiment.notes: Pharmacokinetic study in rats after oral administration of raw/honey-roasting licorice water decoction (UPLC-MS/MS of plasma)
- Type: in vivo, Wistar rats
- measurement.context: male, Wistar, rat, in vivo, po, 2.7 g (crude drug)/kg, rat plasma, oral 25% honey-roasting licorice water decoction, 2.7 g (crude drug)/kg, n = 5; read-out: Cmax
value.kind: Cmax (µg/mL)
Hi! Could you send only the number? It should be in µg/mL, unit omitted.

Please indicate Cmax recorded for O=C(/C=C/c1ccc(O[C@@H]2O[C@H](CO)[C@@H](O)[C@H](O)[C@H]2O)cc1)c1ccc(O)cc1O [ILQ, isoliquiritin]
0.0248

----------
- experiment.notes: Pharmacokinetic study in rats after oral administration of raw/honey-roasting licorice water decoction (UPLC-MS/MS of plasma)
- Assay type: in vivo, Wistar rats
- measurement.context: male, Wistar, rat, plasma, po, 2.7 g (crude drug)/kg, rat plasma, oral 50% honey-roasting licorice water decoction, 2.7 g (crude drug)/kg, n = 5; read-out: Tmax
- Method: Healthy male Wistar rats (weighing 200 ± 20 g) were obtained from the Laboratory Animal Centre of Shanghai Jiao Tong University (Shanghai, China). […] All protocols and procedures were approved by the Shanghai Jiao Tong University Animal Care and Use Committee. […] The pharmacokinetic parameters of the six compounds were calculated by […] […] Statistical analyses of all the data obtained were evaluated using one-way ANOVA (SPSS 17.0).
value.kind: Tmax (h)
Hi! Could you send only the number? It should be in h, unit omitted.

Please indicate Tmax recorded for O=C(/C=C/c1ccc(O)cc1)c1ccc(O)cc1O
1.8

Please indicate Tmax recorded for CC1(C)[C@@H](O)CC[C@]2(C)[C@H]3C(=O)C=C4[C@@H]5C[C@@](C)(C(=O)O)CC[C@]5(C)CC[C@@]4(C)[C@]3(C)CC[C@@H]12
6.8

Where these numbers come from: paper PMC6033295
